Values from PubChem BioAssay (NCI)

Listed here: items and their measured growth.
system: SF-295 CNS; assay: NCI-60 one-dose screen, 48 h (100 = growth as untreated, 0 = no growth, -100 = all killed); details: 10 µM
Compounds without any hit were thinned out: in the full panel of roughly 83,000, 20% have a hit.

- compound: "COc1cc(-c2nc3ccc(C)cc3[nH]2)ccc1OCc1nnc(-c2ccccc2Br)o1"
  growth (%): -0.44
- compound: "COc1ccc(C2OC[C@@]3(C)C4CC[C@]5(C)C(CC=C6C7CC(C)(C)CC[C@]7(C(=O)O)CC[C@]65C)[C@@]4(C)C[C@@H](O)[C@@H]3O2)cc1 (stereo partly drawn)"
  growth (%): 94.3
- compound: "O=C(CSc1nc2ccccc2c(=O)n1-c1ccc(Cl)cc1)Nc1ccc(-c2nc3ccccc3[nH]2)cc1"
  growth (%): -7.28
- compound: "Cn1cc(-c2cc3nc(-c4c[nH]c5ccccc45)cc(N)n3n2)c2cc(Cl)ccc21"
  growth (%): -90.9
- compound: "Cn1cc(-c2cc(N)n3nc(-c4cn(C)c5ccccc45)cc3n2)c2cc(F)ccc21"
  growth (%): -72.6
- compound: "Cc1ccc2sc3c(c2c1)Oc1nc[nH]c(=O)c1C3c1cccc(F)c1 (stereo not drawn)"
  growth (%): 109
- compound: "COc1cc(C2CC(c3ccccc3)=Nc3c(N)nc(N)nc3N2)ccc1Oc1nc(NCCO)nc(N2CCOCC2)n1 (stereo not drawn)"
  growth (%): 105
- compound: "COc1cc2oc(-c3cccc(C(=O)Nc4ccc(Cl)cc4)c3)cc(=O)c2c(OCCNC(=O)[C@@H](N)CO)c1OC"
  growth (%): 99.4

====

system: MDA-MB-468 breast; assay: NCI-60 one-dose screen, 48 h; details: 10 µM unless noted
This is part of a sample that, as a whole, favours compounds with a hit. Of some 83,000 tested, about 20% had one in any assay. Active and inactive are the calls of the source. The calls were made as follows: active = growth percent below 10; inactive = the rest.
Labels: y = active, n = inactive

- compound: "N#C/C(=C\\c1ccc(Br)cc1)n1nnc2c(F)cccc21"
  category.label: "y"
- compound: "COc1cc(Nc2cc(O)c3c(=O)cc(-c4ccccc4)oc3c2)cc(OC)c1"
  category.label: "n"
- compound: "COc1ccc(-c2nc(SCCC(C)C)nc(N/N=C\\c3cccc([N+](=O)[O-])c3)c2C#N)cc1"
  category.label: "n"
- compound: "CCOc1cccc(C2CC(=O)Nc3cc4c(cc32)OCO4)c1 (stereo not given)"
  category.label: "n"
- compound: "CCn1cnc(C[C@H](NC(=O)[C@@H](NC(=O)Nc2cc(C(F)(F)F)cc(C(F)(F)F)c2)C(C)(C)C)C(=O)OC)c1"
  category.label: "y"

====

Test system: MDA-MB-468 breast
Test: NCI-60 one-dose screen, 48 h
Details: 10 µM unless noted
Description: Growth inhibition of the MDA-MB-468 human Breast tumor cell line is measured as a screen for anti-cancer activity. Cells are grown in 96 well plates and exposed to the test compound for 48 hours. Compounds are tested at a single concentration, which is 10^-5 M for most compounds. The reported endpoint is percent growth (GI% or GIPRCNT), where numbers from 0 - 100% represent growth inhibition, and numbers from -100% - 0 represent cell death. […]
About 83,000 compounds went through this panel and 20% of them were active in at least one assay; those are over-represented in the sample as a whole. Calls of active or inactive are those of the source. How the source made its calls: active means growth percent below 10; inactive means the rest.
Labels: active, inactive

- smiles.representation: "CC(=O)c1cc2c(N)c(C(=O)Nc3cccc4c3OCCO4)sc2nc1C"
  category.label: "inactive"
- smiles.representation: "O=C(Nc1cccc(Br)c1)Oc1ccc(Cl)c2cccnc12"
  category.label: "active"
- smiles.representation: "NC(N)=N/N=C/c1ccccc1"
  category.label: "inactive"
- smiles.representation: "O=C(Cc1ccc(F)cc1)c1ccccc1"
  category.label: "inactive"
- smiles.representation: "CNC(=O)c1c(NC(=O)c2ccc(C(C)C)cc2)sc2c(CN(C)C)c(O)ccc12"
  category.label: "inactive"
- smiles.representation: "O=C(Cn1cc(CSc2nc3ccccc3o2)nn1)Nc1ccc(F)cc1F"
  category.label: "inactive"
- smiles.representation: "Cc1cccc(-c2nnc(SCC(=O)Nc3ncc(Cc4ccccc4)s3)n2N2C(=O)CSC2=S)c1"
  category.label: "inactive"
- smiles.representation: "Cc1c2c(nn1C(=O)c1nn(-c3ccc(Cl)cc3)cc1O)-c1ccccc1CC2"
  category.label: "inactive"
- smiles.representation: "O=C1C(c2ccccc2)=C(N2CCc3ccccc32)OC1(Cl)Cl"
  category.label: "inactive"
- smiles.representation: "Cc1ccc2c(c1)/C(=N\\N=C/c1cn(C(C)C)c3ccccc13)C(=O)N2"
  category.label: "active"
- smiles.representation: "COc1cc(/C=C(/C)C[N+](=O)[O-])ccc1O"
  category.label: "inactive"
